experimental.target: T1, monkey IGF-1R (on COS-7 cells) (African green monkey)
T1 construct: whole, on cells
experiment.description: FACS titration, Cos-7
Listing of entries alongside the reported pEC50.
Worth noting: pEC50 values are minus log10 of concentrations stated in mol/L.

>  <binder>
hz208F2 H049/L021 (antibody, human IgG1, kappa, V domains shown, humanized 208F2 variant) VH: QVQLVQSGAEVKKPGASVKVSCKASGYTFTSYYMHWVRQAPGQGLEWMGWIWPGDGSTKYAQKFQGRVTMTRDKSSSTVYMELSSLRSEDTAVYYCASPMITPNYAMDYWGQGTLVTVSS VL: DIQMTQSPSSLSASVGDRVTITCRASQDISKYLNWYQQKPGKAPKLLIYYTSRLHSGVPSRFSGRGSGTDFSLTISSLQPEDFATYFCQQGSTLPYTFGGGTKVEIKR

>  <pEC50>
9.07

$$$$
>  <binder>
hz208F2 H076/L018 (antibody, human IgG1, kappa, V domains shown, humanized 208F2 variant) VH: QVQLVQSGAEVKKPGASVKVSCKASGYTFTSYYIHWVRQAPGQGLEWMGWIWPGDGSTKYAQKFQGRVTMTRDTSTSTVYMELSSLRSEDTAVYYCASPMITPNYAMDYWGQGTLVTVSS VL: DIQMTQSPSSLSASVGDRVTITCRASQDISKYLNWYQQKPGKAPKLLIYYTSRLQSGVPSRFSGRGSGTDYSLTISSLQPEDFATYFCQQGSTLPYTFGGGTKVEIKR

>  <pEC50>
8.96

$$$$

-- ask Suppose we examine the binder hz208F2 H071/L018 (antibody, human IgG1, kappa, V domains shown, humanized 208F2 variant) VH: QVQLVQSGAEVKKPGASVKVSCKASGYTFTSYYMHWVRQAPGQGLEWMGWIWPGDGSTKYAQKFQGRVTMTRDTSTNTVYMELSSLRSEDTAVYYCASPMITPNYAMDYWGQGTLVTVSS VL: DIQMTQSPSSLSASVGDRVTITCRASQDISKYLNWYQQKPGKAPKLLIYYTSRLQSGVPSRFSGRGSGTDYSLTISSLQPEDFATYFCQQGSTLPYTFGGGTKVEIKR ; what pEC50 value has been reported?
-- reply 8.96
